# ASSAY: chemical genetic growth profiling, strain panel (AID 1159580);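 also: tested at 20 µM; growth read once vehicle control cultures reached saturation at 30 °C; 1 = growth at the plate median or of vehicle wells; lower values mean less growth of the strain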
# CONDITION DESCRIPTION: S. cerevisiae deletion strains, growth OD, locus YDR318W, strain mcm21
The campaign covered roughly 5,500 compounds. About 2,000 (36%) were called active. Another 18% or so got no clear call; they are omitted. Rule as the data show it: active = normalized growth mostly below about 0.91 (no sharp cut-off); inconclusive = no clear call, values can overlap the other calls; inactive = mostly above about 0.92. Some of the results follow.
Output constraint: value belongs to active, inactive

Query string: Outcome? CSc1nc(NC(C)C)nc(NC(C)C)n1
Result string: inactive

Continuing:
Query string: Outcome? NC(=O)c1cc([N+](=O)[O-])cc([N+](=O)[O-])c1
Result string: inactive

Query string: Outcome? Cc1c(C(N)=O)cc([N+](=O)[O-])cc1[N+](=O)[O-]
Result string: inactive

Query string: Outcome? NC(=O)c1ccc([N+](=O)[O-])cc1Cl
Result string: inactive

Query string: Outcome? COc1cc(C)c2c(=O)c3c(O)cc(OC)cc3oc2c1
Result string: inactive

Query string: Outcome? NC[C@H]1O[C@H](O[C@H]2[C@H](O)[C@@H](O[C@H]3O[C@H](CO)[C@@H](O)[C@H](N)[C@H]3O)[C@H](N)C[C@@H]2N)[C@H](N)[C@@H](O)[C@@H]1O
Result string: inactive

Query string: Outcome? CC[C@H]1CN2CCC1C[C@@H]2[C@@H](O)c1ccnc2ccc(OC)cc12 (stereo partly drawn)
Result string: inactive

Query string: Outcome? CSCCC(N)C(=O)NC(CC(C)C)C(=O)NC(Cc1ccccc1)C(=O)O (stereo not drawn)
Result string: inactive

Query string: Outcome? NC[C@H]1O[C@H](OC2[C@@H](N)C[C@@H](N)[C@H](O[C@H]3O[C@H](CO)[C@@H](O)[C@H](N)[C@H]3O)[C@H]2O)[C@H](O)[C@@H](O)[C@@H]1O (stereo partly drawn)
Result string: inactive

Query string: Outcome? COc1cc(O)c2c(=O)cc(-c3ccc(OC)c(-c4c(O)cc(O)c5c(=O)cc(-c6ccc(O)cc6)oc45)c3)oc2c1
Result string: inactive

Query string: Outcome? C/C=C(\C)C(=O)O[C@@H]1c2c(ccc3ccc(=O)oc23)OC(C)(C)[C@@H]1OC(C)=O
Result string: inactive

Query string: Outcome? COc1ccc(-c2cc(=O)c3c(O)c(OC)c(O[C@H]4O[C@H](CO[C@@H]5O[C@@H](C)[C@H](O)[C@@H](O)[C@H]5O)[C@@H](O)[C@H](O)[C@H]4O)cc3o2)cc1
Result string: inactive

Query string: Outcome? COc1cc(C)c2c(=O)c3c(O)cc(O)cc3oc2c1
Result string: active

Query string: Outcome? C[C@H]1O[C@@H](O[C@H]2[C@@H](O)C[C@H](O[C@H]3[C@@H](O)C[C@H](O[C@H]4CC[C@]5(C)C6C[C@@H](O)[C@]7(C)[C@@H](C8=CC(=O)OC8)CC[C@]7(O)C6CC[C@@H]5C4)O[C@@H]3C)O[C@@H]2C)C[C@H](O)[C@@H]1O (stereo partly drawn)
Result string: inactive

Query string: Outcome? C[N+]1(C)C[C@H](O)[C@H](C(=O)[O-])C1
Result string: inactive

Query string: Outcome? C[C@@H]1CCC2[C@](C)(CO)[C@@H](O)CC[C@]2(C)[C@@]12CC[C@@](CO)(CCO)O2 (stereo partly drawn)
Result string: inactive

Query string: Outcome? C[C@H]1O[C@@H](O[C@H]2[C@@H](O)C[C@H](O[C@H]3[C@@H](O)C[C@H](O[C@H]4CC[C@]5(C)C6CC[C@]7(C)[C@@H](C8=CC(=O)OC8)CC[C@]7(O)C6CC[C@@H]5C4)O[C@@H]3C)O[C@@H]2C)C[C@H](O)[C@@H]1O (stereo partly drawn)
Result string: inactive

Query string: Outcome? COc1cccc2c1CCC1=CC(=O)CC[C@@]12C
Result string: inactive

Query string: Outcome? CC(=O)OC1CC[C@@]2(C)C(CCC3C2CC[C@]2(C)C(C4=CC(=O)OC4)C(OC(C)=O)CC32O)C1 (stereo partly drawn)
Result string: inactive

Query string: Outcome? O=C(CCCN1CCC2(CC1)C(=O)NCN2c1ccccc1)c1ccc(F)cc1
Result string: inactive

Query string: Outcome? O=c1c(O)cccc2c(C3Oc4cc(O)cc(O)c4CC3O)cc(O)c(O)c12 (stereo not drawn)
Result string: active

Query string: Outcome? NS(=O)(=O)c1cc2c(cc1C(F)(F)F)NC(Cc1ccccc1)NS2(=O)=O (stereo not drawn)
Result string: inactive

* * *

# ASSAY: chemical genetic growth profiling, strain panel (AID 1159580);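 also: tested at 20 µM; growth read once vehicle control cultures reached saturation at 30 °C; 1 = growth at the plate median or of vehicle wells; lower values mean less growth of the strain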
# CONDITION DESCRIPTION: S. cerevisiae deletion strains, growth OD, locus YNL298W, strain CLA4, active compounds read low
The whole screen tested about 5,500 compounds, of which about 2,000 (36%) were called active. Roughly 18% stayed inconclusive and do not appear here. The list shows a part of the results.
normalized growth by entry:
Provide a numeric answer; units are not to be included.

Example entries and their recorded answers appear below.
Lookup result for COc1cc(O)c2c(=O)cc(-c3ccc(O)cc3)oc2c1 ; measured normalized growth: 0.963

Lookup result for COc1cc(O)c2c(=O)cc(-c3ccc(OC)c(-c4c(O)cc(O)c5c(=O)cc(-c6ccc(O)cc6)oc45)c3)oc2c1 ; measured normalized growth: 0.975

Lookup result for CCC(=O)OCC(=O)C1(OC(=O)CC)C(C)CC2C3CCC4=CC(=O)C=CC4(C)C3(Cl)C(O)CC21C (centres undefined) ; measured normalized growth: 0.991

Lookup result for Nc1nc(/C(=C/CC(=O)O)C(=O)N[C@@H]2C(=O)N3C(C(=O)O)=CCS[C@H]23)cs1 ; measured normalized growth: 0.984

Lookup result for NCC(O)CC(=O)O (centres undefined) ; measured normalized growth: 0.992

Lookup result for COC(=O)C[C@H]1C(C)(C)[C@@H](O)[C@@H]2CC3=C4CC(O)O[C@@H](c5ccoc5)[C@]4(C)CCC3[C@@]1(C)C2=O (some centres undefined) ; measured normalized growth: 0.981

Lookup result for CO[C@@H]1C[C@H](O[C@H]2CC[C@]3(C)C4CC[C@]5(C)[C@@H](C6=CC(=O)OC6)CC[C@]5(O)[C@@H]4CC[C@]3(O)C2)O[C@H](C)[C@@H]1O (some centres undefined) ; measured normalized growth: 0.944

Lookup result for CC(=O)[C@@]1(O)CCC2C3C=C(Cl)C4=CC(=O)[C@@H]5CC5[C@]4(C)C3CC[C@@]21C (some centres undefined) ; measured normalized growth: 1.01

Lookup result for CC(=O)N1CCCC1C(=O)O (centres undefined) ; measured normalized growth: 1.04

Lookup result for CC(=O)OCC(=O)[C@@]1(O)CCC2C3C[C@H](C)C4=CC(=O)C=CC4(C)C3[C@@H](O)CC21C (some centres undefined) ; measured normalized growth: 1.01

Continuing:
Lookup result for O=C(O)CN(CCN(CC(=O)O)CC(=O)O)CC(=O)O ; measured normalized growth: 0.99

Lookup result for NC[C@H]1O[C@H](OC2[C@@H](N)C[C@@H](N)[C@H](O[C@H]3O[C@H](CO)[C@@H](O)[C@H](N)[C@H]3O)[C@H]2O)[C@H](O)[C@@H](O)[C@@H]1O (some centres undefined) ; measured normalized growth: 0.97

Lookup result for COc1ccc(-c2cc(=O)c3c(O)c(OC)c(O[C@H]4O[C@H](CO[C@@H]5O[C@@H](C)[C@H](O)[C@@H](O)[C@H]5O)[C@@H](O)[C@H](O)[C@H]4O)cc3o2)cc1 ; measured normalized growth: 1.02

Lookup result for NC(=O)c1cc([N+](=O)[O-])cc([N+](=O)[O-])c1 ; measured normalized growth: 0.983

Lookup result for CCOC(=O)CC(SP(=S)(OC)OC)C(=O)OCC (centres undefined) ; measured normalized growth: 1.02

* * *

# ASSAY: chemical genetic growth profiling, strain panel (AID 1159580);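 also: tested at 20 µM; growth read once vehicle control cultures reached saturation at 30 °C; 1 = growth at the plate median or of vehicle wells; lower values mean less growth of the strain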
# CONDITION DESCRIPTION: S. cerevisiae deletion strains, growth OD, locus YIL073C, strain SPO22, active compounds read low
The campaign covered roughly 5,500 compounds. About 2,000 (36%) were called active. About 18% were inconclusive and are not listed. The list shows a part of the results.
normalized growth by entry:
Provide a numeric answer; units are not to be included.

Example entries and their recorded answers appear below.
Lookup result for CC(C)=CC1C(CO)C1(C)C (centres undefined) ; measured normalized growth: 1.02

Lookup result for NCC(O)CC(=O)O (centres undefined) ; measured normalized growth: 1.03

Lookup result for COP(N)(=O)SC (centres undefined) ; measured normalized growth: 1.06

Lookup result for COC1=CC(C)[C@@H]2C[C@H]3OC(=O)C[C@H]4C(C)=C(OC)C(=O)C([C@@]34C)[C@@]2(C)C1=O (some centres undefined) ; measured normalized growth: 1.06

Lookup result for NC[C@H]1O[C@H](OC2[C@@H](N)C[C@@H](N)[C@H](O[C@H]3O[C@H](CO)[C@@H](O)[C@H](N)[C@H]3O)[C@H]2O)[C@H](O)[C@@H](O)[C@@H]1O (some centres undefined) ; measured normalized growth: 0.954

Continuing:
Lookup result for CO[C@@H]1C[C@H](O[C@H]2CC[C@]3(C)C4CC[C@]5(C)[C@@H](C6=CC(=O)OC6)CC[C@]5(O)[C@@H]4CC[C@]3(O)C2)O[C@H](C)[C@@H]1O (some centres undefined) ; measured normalized growth: 1.04

Lookup result for Cc1c(OCC(F)(F)F)ccnc1CS(=O)c1nc2ccccc2[nH]1 (centres undefined) ; measured normalized growth: 1.04

Lookup result for CC(=O)N1CCCC1C(=O)O (centres undefined) ; measured normalized growth: 1.08

Lookup result for COC1CC(O[C@H]2CC[C@]3(C=O)C4CC[C@]5(C)C(C6=CC(=O)OC6)CC[C@]5(O)C4CC[C@]3(O)C2)OC(C)C1O (some centres undefined) ; measured normalized growth: 1.01

Source: PubChem BioAssay AID1159580
